Below, each entry is listed with its recorded IgG2 IC50 (nM), inhibition of PCSK9 (LDL uptake assay).
# test-system: rhesus PCSK9 (rhesus, UniProt A8T666 31-692, limits assumed)
# Sequence (A8T666 31-692 limits assumed): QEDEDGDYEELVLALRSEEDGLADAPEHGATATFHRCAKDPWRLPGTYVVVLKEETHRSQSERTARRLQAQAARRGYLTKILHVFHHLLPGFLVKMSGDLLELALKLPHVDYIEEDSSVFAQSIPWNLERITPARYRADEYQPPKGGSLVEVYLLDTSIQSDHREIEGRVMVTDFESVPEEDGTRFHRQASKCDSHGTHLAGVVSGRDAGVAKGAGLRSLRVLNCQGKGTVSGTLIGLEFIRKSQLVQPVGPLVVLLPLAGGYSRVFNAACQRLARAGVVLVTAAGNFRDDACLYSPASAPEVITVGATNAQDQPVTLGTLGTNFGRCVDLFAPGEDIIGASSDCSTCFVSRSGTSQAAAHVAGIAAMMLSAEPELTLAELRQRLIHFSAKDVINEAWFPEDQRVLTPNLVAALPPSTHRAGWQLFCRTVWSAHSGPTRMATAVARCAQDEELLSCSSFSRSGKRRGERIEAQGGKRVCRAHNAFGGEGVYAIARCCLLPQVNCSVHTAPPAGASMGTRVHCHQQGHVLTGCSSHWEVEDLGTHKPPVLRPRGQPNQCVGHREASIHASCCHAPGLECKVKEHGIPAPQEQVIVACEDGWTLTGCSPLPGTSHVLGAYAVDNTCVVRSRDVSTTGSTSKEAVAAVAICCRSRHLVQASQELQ
# measurement-protocol: cell-based or functional assay
Units required after the number.

binder	result
AX211 IgG2 (antibody, V domains shown) VH: QVQLLESGGGLVQPGGSLRLSCKASGYTFSRQGFTWVRQAPGKGLEWIGWIDPGNGGTRYNEKFKGKATISRDNSKNTLYLQMNSLRAEDTAVYYCARYRVGYSLDYWGQGTLVTVSS VL: EIVLTQSPATLSLSPGERATITCRASQYVGSYLNWYQQKPGQAPRLLIYDASNRATGIPARFSGSGSGTDFTLTISSLEPEDFAVYYCQVWDSSPPVVFGGGTKVEIK	4.4 nM

[Q] What does the record list as IgG2 IC50 (nM), inhibition of PCSK9 (LDL uptake assay) for AX210 IgG2 (antibody, V domains shown) VH: QVQLLESGGGLVQPGGSLRLSCKASGYTFSSYSIYWVRQAPGKGLEWIGWIDPGNGGTRYNQKFQSKATISRDNSKNTLYLQMNSLRAEDTAVYYCARARVGYSLDYWGQGTLVTVSS VL: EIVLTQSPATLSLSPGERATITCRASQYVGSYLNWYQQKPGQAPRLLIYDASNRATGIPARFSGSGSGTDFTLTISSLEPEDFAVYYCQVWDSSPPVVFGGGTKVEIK ?
[A] 9.7 nM

[Q] Please give the measured IgG2 IC50 (nM), inhibition of PCSK9 (LDL uptake assay) for this binder: AX213 IgG2 (antibody, V domains shown) VH: EVQLLESGGGLVQPGGSLRLSCKASGYTFSRYGINWVRQAPGKGLEWIGRIDPGNGGTRYNEKFKGKATISRDNSKNTLYLQMNSLRAEDTAVYYCARANDGYSFDYWGQGTLVTVSS VL: EIVLTQSPATLSLSPGERATITCRASQYVGSYLNWYQQKPGQAPRLLIYDASNRATGIPARFSGSGSGTDFTLTISSLEPEDFAVYYCQVWDSSPPVVFGGGTKVEIKR
[A] 10.2 nM

Cited source for all entries: patent US20120213794A1
